measurement-target: Lysosomal acid glucosylceramidase (Homo sapiens) (UniProt P04062)
Sequence (P04062 whole entry N409S): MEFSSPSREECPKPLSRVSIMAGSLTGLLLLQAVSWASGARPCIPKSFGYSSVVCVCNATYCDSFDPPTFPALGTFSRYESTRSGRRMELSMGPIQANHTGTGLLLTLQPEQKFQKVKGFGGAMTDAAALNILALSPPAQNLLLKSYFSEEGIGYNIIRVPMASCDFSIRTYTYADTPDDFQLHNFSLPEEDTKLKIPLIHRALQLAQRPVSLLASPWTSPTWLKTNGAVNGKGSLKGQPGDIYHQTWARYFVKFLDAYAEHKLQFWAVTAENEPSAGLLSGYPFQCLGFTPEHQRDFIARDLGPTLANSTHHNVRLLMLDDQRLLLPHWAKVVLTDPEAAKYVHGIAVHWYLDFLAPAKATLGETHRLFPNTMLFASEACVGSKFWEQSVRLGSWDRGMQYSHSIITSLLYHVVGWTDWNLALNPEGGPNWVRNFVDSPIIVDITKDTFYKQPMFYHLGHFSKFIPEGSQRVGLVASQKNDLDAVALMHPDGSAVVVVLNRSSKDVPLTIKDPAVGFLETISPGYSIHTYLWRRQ
assay-procedure: qHTS Assay for Inhibitors and Activators of N370S glucocerebrosidase as a Potential Chaperone Treatment of Gaucher Disease: Activity in N370S Spleen Homogenate Using a Red Fluorescent Substrate
setup-conditions: red fluorogenic substrate; series mostly up to 49.6 µM
Records with an inconclusive call do not appear. The source made the active and inactive calls. Calls come from the whole dose curve; as a rule, active = well fitted inhibition curve with a large enough effect; inconclusive = small, poorly fitted or top-dose-only effect; inactive = flat fitted curve, though single readings scatter.
Classes used: active, inactive

In [3]: df
Out[3]:
                                    compound  label_class
 0  COc1ccccc1NC(=O)COc1ccccc1C(=O)Nc1ccccc1     inactive
 1  CCOc1ccc(N(CC(=O)NC2CCCCCC2)S(=O)(=O)c2c(C)[nH]c(=O)[nH]c2=O)cc1       active
 2      Nc1nc(-c2ccccc2)c(N=Nc2ccc(Cl)cc2)s1     inactive
 3  N#Cc1ccccc1Sc1ccccc1C(=O)OCC(=O)NC12CC3CC(CC(C3)C1)C2     inactive
 4  Cc1cc(N2CCOCC2)nc2ccc(NC(=O)CCC3CCCC3)cc12       active
 5     COc1ccc(Nc2nc(-c3cccs3)nc3ccccc23)cc1       active
 6  Cc1cc(N2CCOCC2)nc2ccc(NC(=O)c3ccco3)cc12     inactive
 7  CC(=O)Nc1ccc(NC(=O)COc2ccccc2C(=O)Nc2cccc(Cl)c2Cl)cc1     inactive
 8  Cc1cc(N2CCN(c3ncccn3)CC2)nc2ccc(NC(=O)C3CCC(C)CC3)cc12 (stereo not given)       active
 9  O=C(NCc1ccccc1)c1ccc(NS(=O)(=O)c2ccccc2)cc1     inactive
10  N=c1c2c(-c3ccccc3)c(-c3ccccc3)n(Cc3ccco3)c2ncn1CCCn1ccnc1       active
11  Cc1cccc(/C=N/NC(=O)NC23CC4CC(CC(C4)C2)C3)n1     inactive
12  COc1cc(OC)c2c(N)c(C#N)c(C(F)(F)C(F)(F)F)nc2c1     inactive
13  CCN(CC)c1cc(C)c2cc(NC(=O)C3CCC(C)CC3)ccc2n1 (stereo not given)       active
14  S=C(NCCCc1cnc[nH]1)NCCCN(Cc1ccc(Cl)c(Cl)c1)c1ccc(Br)cn1       active
15  CC1(C)CC(=O)C2=C(C1)c1c(ccc3ccccc13)NC2c1ccc(Br)o1 (stereo not given)     inactive
16  Cc1cc(C)n2ncc(C(=O)Nc3ccc(Cl)c(Cl)c3)c2n1     inactive
17  COc1cccc(CN(C)c2nc(-c3cccs3)nc3ccccc23)c1       active
18  Cc1cc(C)cc(N(CC(=O)NC2CCCCCC2)S(=O)(=O)c2c(C)[nH]c(=O)[nH]c2=O)c1       active
19  O=C(Nc1cnn(Cc2ccc(F)cc2)c1)c1cnn2c(C(F)F)cc(-c3ccccc3)nc12     inactive
20  COc1cccc(NC(=O)CSc2nc3ccccc3c(=O)n2Cc2cccs2)c1     inactive
21  CCCC1CCC(C(=O)Nc2ccc3nc(N4CCOCC4)cc(C)c3c2)CC1 (stereo not given)       active
22         O=C(/C=C/c1ccc(O)cc1)c1ccc(O)cc1O       active
23  COc1cc2c(cc1NC(=O)COC(=O)[C@@H](NC(=O)c1ccccc1)C(C)C)oc1ccccc12     inactive
24  O=C(COc1ccccc1[N+](=O)[O-])Nc1ccc(Br)cc1     inactive
25  Cc1cc(N2CCCCC2)nc2ccc(NC(=O)C3CCC(C)CC3)cc12 (stereo not given)       active
26  CC1CC(C)CN(C(=O)CSc2nc(Cc3cccs3)nc3ccccc23)C1 (stereo not given)     inactive
27  Cc1cc(Nc2cccc(Cl)c2)nc2ccc(NC(=O)C3CCC(C)CC3)cc12 (stereo not given)     inactive
28  CCC(C)NC(=O)COC(=O)c1ccccc1OCC(=O)Nc1ccc(Br)cc1 (stereo not given)     inactive
29  O=C(Nc1nccs1)c1ccc(NS(=O)(=O)c2ccc(Cl)cc2)cc1     inactive

Hello, the source for this data is PubChem BioAssay AID2613, in case you need it.
